# Tested on: biotinyl-Phe-oxazolone
# assayDetails: self-aminoacylation, catalytic enhancement (BFO) (fold over background); higher = more active; k-Seq, kA / k0A0; sequences stand for … in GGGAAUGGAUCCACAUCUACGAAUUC…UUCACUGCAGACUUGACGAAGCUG
This sample holds only a part of the variants without activity.
reportedMetric: self-aminoacylation

recordSequence	readoutValue
AUUCUUCAAACAAUCGGUCUG [Fam1A.1 aminoacylation ribozyme variant]	1.66
CGACAUCAAACAAUCGGUCUG [Fam1A.1 aminoacylation ribozyme variant]	3.7
GUUCACCUAGGUCAACGGGUG [Fam2.2 aminoacylation ribozyme variant]	17.5
AUUCGCCUAGGUCAUCGCGUG [Fam2.2 aminoacylation ribozyme variant]	126
